test system: NCI-H441; experiment: relative viability (nuclei count vs DMSO), 5 days (fraction); higher = more cells survive; details: first compound 0.03162 µM
Item-by-item account of relative viability
assay.metric: relative viability

compound="O=c1cc(N2CCOCC2)oc2c(-c3cccc4c3sc3ccccc34)cccc12 + CCNC(=O)c1noc(-c2cc(C(C)C)c(O)cc2O)c1-c1ccc(CN2CCOCC2)cc1 [Luminespib] (partner 0.01 µM)" assay_metric="relative viability" experimental_value=0.406
compound="O=c1cc(N2CCOCC2)oc2c(-c3cccc4c3sc3ccccc34)cccc12 + CC(=O)c1c(C)c2cnc(Nc3ccc(N4CCNCC4)cn3)nc2n(C2CCCC2)c1=O [Palbociclib] (partner 0.5 µM)" assay_metric="relative viability" experimental_value=0.217
compound="O=c1cc(N2CCOCC2)oc2c(-c3cccc4c3sc3ccccc34)cccc12 + CC1(C)CCC(c2ccc(Cl)cc2)=C(CN2CCN(c3ccc(C(=O)NS(=O)(=O)c4ccc(N[C@H](CCN5CCOCC5)CSc5ccccc5)c(S(=O)(=O)C(F)(F)F)c4)cc3)CC2)C1 [Navitoclax] (partner 0.5 µM)" assay_metric="relative viability" experimental_value=0.787
compound="O=c1cc(N2CCOCC2)oc2c(-c3cccc4c3sc3ccccc34)cccc12 + Nc1nc2[nH]cc(CCc3ccc(C(=O)N[C@@H](CCC(=O)O)C(=O)O)cc3)c2c(=O)[nH]1 [Pemetrexed] (partner 0.2 µM)" assay_metric="relative viability" experimental_value=0.272
compound="O=c1cc(N2CCOCC2)oc2c(-c3cccc4c3sc3ccccc34)cccc12 + O=C(CCCCCCC(=O)Nc1ccccc1)NO [Vorinostat] (partner 1 µM)" assay_metric="relative viability" experimental_value=0.704
compound="O=c1cc(N2CCOCC2)oc2c(-c3cccc4c3sc3ccccc34)cccc12 + Nc1ncn([C@H]2C[C@H](O)[C@@H](CO)O2)c(=O)n1 [Decitabine] (partner 2 µM)" assay_metric="relative viability" experimental_value=0.255
compound="CCN(CC)CCCCNc1ncc2cc(-c3cc(OC)cc(OC)c3)c(NC(=O)NC(C)(C)C)nc2n1 + Nc1ncn([C@H]2C[C@H](O)[C@@H](CO)O2)c(=O)n1 [Decitabine] (partner 2 µM)" assay_metric="relative viability" experimental_value=0.265
compound="O=c1cc(N2CCOCC2)oc2c(-c3cccc4c3sc3ccccc34)cccc12 + Cc1cc(Nc2cc(N3CCN(C)CC3)nc(Sc3ccc(NC(=O)C4CC4)cc3)n2)n[nH]1 [Tozasertib] (partner 0.1 µM)" assay_metric="relative viability" experimental_value=0.713
compound="O=c1cc(N2CCOCC2)oc2c(-c3cccc4c3sc3ccccc34)cccc12 + NC(=O)Nc1cc(-c2cccc(F)c2)sc1C(=O)N[C@H]1CCCNC1 [AZD7762] (partner 0.2 µM)" assay_metric="relative viability" experimental_value=1.03

====

system: NCI-H2126; experiment: relative viability (nuclei count vs DMSO), 5 days (fraction); higher = more cells survive; conditions: first compound 0.08 µM
// NB: equality with 0.7 counts as NOT MET; only relative viability strictly below is MET

compound="COc1nc(C)cnc1NS(=O)(=O)c1cccnc1-c1ccc(-c2nnco2)cc1 [Zibotentan] + CC(=O)c1c(C)c2cnc(Nc3ccc(N4CCNCC4)cn3)nc2n(C2CCCC2)c1=O [Palbociclib] (partner 0.5 µM)" class_label=MET
compound="O=c1cc(-c2cccc3c2Sc2ccccc2S3)oc(N2CCOCC2)c1 + CCNC(=O)c1noc(-c2cc(C(C)C)c(O)cc2O)c1-c1ccc(CN2CCOCC2)cc1 [Luminespib] (partner 0.01 µM)" class_label="NOT MET"
compound="COc1nc(C)cnc1NS(=O)(=O)c1cccnc1-c1ccc(-c2nnco2)cc1 [Zibotentan] + CS(=O)(=O)CCNCc1ccc(-c2ccc3ncnc(Nc4ccc(OCc5cccc(F)c5)c(Cl)c4)c3c2)o1 [Lapatinib] (partner 2 µM)" class_label="NOT MET"
compound="COc1nc(C)cnc1NS(=O)(=O)c1cccnc1-c1ccc(-c2nnco2)cc1 [Zibotentan] + CC(=O)Nc1cccc(-n2c(=O)n(C3CC3)c(=O)c3c(Nc4ccc(I)cc4F)n(C)c(=O)c(C)c32)c1 [Trametinib] (partner 0.02 µM)" class_label=MET
compound="COc1nc(C)cnc1NS(=O)(=O)c1cccnc1-c1ccc(-c2nnco2)cc1 [Zibotentan] + NC(=O)Nc1cc(-c2cccc(F)c2)sc1C(=O)N[C@H]1CCCNC1 [AZD7762] (partner 0.2 µM)" class_label="NOT MET"
compound="O=c1cc(-c2cccc3c2Sc2ccccc2S3)oc(N2CCOCC2)c1 + COc1cc2c(Oc3ccc(NC(=O)C4(C(=O)Nc5ccc(F)cc5)CC4)cc3F)ccnc2cc1OCCCN1CCOCC1 [Foretinib] (partner 0.25 µM)" class_label="NOT MET"
compound="COc1nc(C)cnc1NS(=O)(=O)c1cccnc1-c1ccc(-c2nnco2)cc1 [Zibotentan] + N=C(N)NC(=N)NCCc1ccccc1 [Phenformin] (partner 250 µM)" class_label=MET
compound="O=c1cc(-c2cccc3c2Sc2ccccc2S3)oc(N2CCOCC2)c1 + COc1cccc2cc(-c3nc([C@H]4CC[C@H](C(=O)O)CC4)n4ncnc(N)c34)[nH]c12 [OSI-027] (partner 0.5 µM)" class_label=MET
compound="O=c1cc(-c2cccc3c2Sc2ccccc2S3)oc(N2CCOCC2)c1 + CC(C)C[C@H](NC(=O)[C@H](Cc1ccccc1)NC(=O)c1cnccn1)B(O)O [Bortezomib] (partner 0.002 µM)" class_label="NOT MET"
compound="O=c1cc(-c2cccc3c2Sc2ccccc2S3)oc(N2CCOCC2)c1 + Cc1cc(Nc2cc(N3CCN(C)CC3)nc(Sc3ccc(NC(=O)C4CC4)cc3)n2)n[nH]1 [Tozasertib] (partner 0.1 µM)" class_label="NOT MET"
compound="O=c1cc(-c2cccc3c2Sc2ccccc2S3)oc(N2CCOCC2)c1 + O=C(c1cc(Cc2n[nH]c(=O)c3ccccc23)ccc1F)N1CCN(C(=O)C2CC2)CC1 [Olaparib] (partner 8 µM)" class_label="NOT MET"
compound="COc1nc(C)cnc1NS(=O)(=O)c1cccnc1-c1ccc(-c2nnco2)cc1 [Zibotentan] + Cc1cc(Nc2cc(N3CCN(C)CC3)nc(Sc3ccc(NC(=O)C4CC4)cc3)n2)n[nH]1 [Tozasertib] (partner 0.1 µM)" class_label="NOT MET"
compound="O=c1cc(-c2cccc3c2Sc2ccccc2S3)oc(N2CCOCC2)c1 + CC(=O)c1c(C)c2cnc(Nc3ccc(N4CCNCC4)cn3)nc2n(C2CCCC2)c1=O [Palbociclib] (partner 0.5 µM)" class_label=MET
compound="COc1nc(C)cnc1NS(=O)(=O)c1cccnc1-c1ccc(-c2nnco2)cc1 [Zibotentan] + Nc1ncn([C@H]2C[C@H](O)[C@@H](CO)O2)c(=O)n1 [Decitabine] (partner 2 µM)" class_label=MET
compound="COc1nc(C)cnc1NS(=O)(=O)c1cccnc1-c1ccc(-c2nnco2)cc1 [Zibotentan] + COc1cccc2cc(-c3nc([C@H]4CC[C@H](C(=O)O)CC4)n4ncnc(N)c34)[nH]c12 [OSI-027] (partner 0.5 µM)" class_label="NOT MET"

====

system: EMC-BAC-2; assay: relative viability (nuclei count vs DMSO), 5 days (fraction); higher = more cells survive; settings: first compound 0.08 µM
Threshold check on relative viability: strictly below 0.5 is yes (1); on or above 0.5 is no (0).

molecule="O=c1cc(-c2cccc3c2Sc2ccccc2S3)oc(N2CCOCC2)c1 + NC(=O)Nc1cc(-c2cccc(F)c2)sc1C(=O)N[C@H]1CCCNC1 [AZD7762] (partner 0.2 µM)" class_label="no (0)"
molecule="COc1nc(C)cnc1NS(=O)(=O)c1cccnc1-c1ccc(-c2nnco2)cc1 [Zibotentan] + CS(=O)(=O)CCNCc1ccc(-c2ccc3ncnc(Nc4ccc(OCc5cccc(F)c5)c(Cl)c4)c3c2)o1 [Lapatinib] (partner 2 µM)" class_label="no (0)"
molecule="O=c1cc(-c2cccc3c2Sc2ccccc2S3)oc(N2CCOCC2)c1 + COc1cccc2cc(-c3nc([C@H]4CC[C@H](C(=O)O)CC4)n4ncnc(N)c34)[nH]c12 [OSI-027] (partner 0.5 µM)" class_label="yes (1)"
molecule="O=c1cc(-c2cccc3c2Sc2ccccc2S3)oc(N2CCOCC2)c1 + O=C(CCCCCCC(=O)Nc1ccccc1)NO [Vorinostat] (partner 1 µM)" class_label="yes (1)"
molecule="O=c1cc(-c2cccc3c2Sc2ccccc2S3)oc(N2CCOCC2)c1 + Cc1cc(Nc2cc(N3CCN(C)CC3)nc(Sc3ccc(NC(=O)C4CC4)cc3)n2)n[nH]1 [Tozasertib] (partner 0.1 µM)" class_label="yes (1)"
molecule="O=c1cc(-c2cccc3c2Sc2ccccc2S3)oc(N2CCOCC2)c1 + CS(=O)(=O)N1CCN(Cc2cc3nc(-c4cccc5[nH]ncc45)nc(N4CCOCC4)c3s2)CC1 [Pictilisib] (partner 1 µM)" class_label="no (0)"
molecule="O=c1cc(-c2cccc3c2Sc2ccccc2S3)oc(N2CCOCC2)c1 + CC1(C)CCC(c2ccc(Cl)cc2)=C(CN2CCN(c3ccc(C(=O)NS(=O)(=O)c4ccc(N[C@H](CCN5CCOCC5)CSc5ccccc5)c(S(=O)(=O)C(F)(F)F)c4)cc3)CC2)C1 [Navitoclax] (partner 0.5 µM)" class_label="no (0)"
molecule="COc1nc(C)cnc1NS(=O)(=O)c1cccnc1-c1ccc(-c2nnco2)cc1 [Zibotentan] + Cc1nc(Nc2ncc(C(=O)Nc3c(C)cccc3Cl)s2)cc(N2CCN(CCO)CC2)n1 [Dasatinib] (partner 0.075 µM)" class_label="yes (1)"
molecule="COc1nc(C)cnc1NS(=O)(=O)c1cccnc1-c1ccc(-c2nnco2)cc1 [Zibotentan] + CC(C)C[C@H](NC(=O)[C@H](Cc1ccccc1)NC(=O)c1cnccn1)B(O)O [Bortezomib] (partner 0.002 µM)" class_label="no (0)"
molecule="O=c1cc(-c2cccc3c2Sc2ccccc2S3)oc(N2CCOCC2)c1 + C[C@@H](Oc1cc(-c2cnn(C3CCNCC3)c2)cnc1N)c1c(Cl)ccc(F)c1Cl [Crizotinib] (partner 1 µM)" class_label="no (0)"
molecule="COc1nc(C)cnc1NS(=O)(=O)c1cccnc1-c1ccc(-c2nnco2)cc1 [Zibotentan] + C[C@@H](Oc1cc(-c2cnn(C3CCNCC3)c2)cnc1N)c1c(Cl)ccc(F)c1Cl [Crizotinib] (partner 1 µM)" class_label="no (0)"
molecule="COc1nc(C)cnc1NS(=O)(=O)c1cccnc1-c1ccc(-c2nnco2)cc1 [Zibotentan] + NC(=O)Nc1cc(-c2cccc(F)c2)sc1C(=O)N[C@H]1CCCNC1 [AZD7762] (partner 0.2 µM)" class_label="no (0)"
molecule="O=c1cc(-c2cccc3c2Sc2ccccc2S3)oc(N2CCOCC2)c1 + C[C@]1(O)C[C@@H](c2nc(-c3ccc4ccc(-c5ccccc5)nc4c3)c3c(N)nccn32)C1 [Linsitinib] (partner 1 µM)" class_label="no (0)"

Data origin: the supplement of paper PMC10307832
